- TARGET DESC: NrtB
- Format: cell-based, Aspergillus nidulans
- MEASUREMENT SETUP: nrtA1 (NrtB); inhibitor concentration reducing net nitrate uptake rate by 50 % of control; mean ± SE; listed as caesium
PROPERTY MEASURED: Ki

-- ask Consider the compound `[Cs+]` . State its measured Ki.
-- reply ~3000 µM

====

- TARGET DESC: NrtA, NrtB (WT strain)
- MEASUREMENT NOTES: Net nitrate uptake assay and kinetics, WT strain
- Assay type: cell-based, Aspergillus nidulans
- MEASUREMENT SETUP: WT (NrtA, NrtB); inhibitor concentration reducing net nitrate uptake rate by 50 % of control; mean ± SE
- Description: These were performed on cultures grown in liquid AMM with 5 mM urea as nitrogen source for a total of 6.5 h at 37 °C ([Brownlee & Arst, 1983]). […] Assays were carried out in triplicate, generally at pH 6.5, on three independently grown cultures for each strain and expressed as nmol nitrate removed from the medium min^ − 1 (mg dried mycelium)^ − 1, as discussed before ([Brownlee & Arst, 1983]; [Kinghorn et al., 2005]; [Unkles et al., 2012]). […]
Field: Ki. Provide a value for each of the compounds that follow.
All answers are understood in mM, so give the number only.

-- ask Consider the compound `[O-][Cl+]O` . State its measured Ki.
-- reply 0.35

-- ask Consider the compound [O-][Cl+2]([O-])O [Chlorate, chlorate] . State its measured Ki.
-- reply 29.9

-- ask Consider the compound `[Cs+]` . State its measured Ki.
-- reply 45.1

====

- TARGET DESC: NrtA, NrtB (WT strain)
- MEASUREMENT NOTES: Net nitrate uptake assay and kinetics, WT strain
- Assay type: cell-based, Aspergillus nidulans
- MEASUREMENT SETUP: WT (NrtA, NrtB); inhibitor concentration reducing net nitrate uptake rate by 50 % of control; mean ± SE; listed as chlorate
- Method: These were performed on cultures grown in liquid AMM with 5 mM urea as nitrogen source for a total of 6.5 h at 37 °C ([Brownlee & Arst, 1983]). […] Assays were carried out in triplicate, generally at pH 6.5, on three independently grown cultures for each strain and expressed as nmol nitrate removed from the medium min^ − 1 (mg dried mycelium)^ − 1, as discussed before ([Brownlee & Arst, 1983]; [Kinghorn et al., 2005]; [Unkles et al., 2012]). […]
PROPERTY MEASURED: Ki

-- ask Consider the compound [O-][Cl+2]([O-])O [Chlorate, chlorate] . State its measured Ki.
-- reply ~30 mM
